Record form. Attribute: composite Z-score. Fill in for each entry.
# protocol_description: small-molecule microarray binders of probe aXIP, primary screen, biochemical, NeuroSMM set, 635/667 nm fluorescence (AID 1119);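 further: probe is the protein aXip251-270 applied at 1 µg/mL to compound-printed slides; binding of probe to printed compounds measured as 667 nm fluorescence plus signal to noise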
# condition_parameters: higher = more signal, called active from +8 up or from −8 down
# print the numeric value only

Challenge: What value of measured composite Z-score is listed for `CCOC(=O)C1=CC[C@@H](c2ccccc2)N(S(=O)(=O)c2ccc(C)cc2)[C@H]1C#N` ?
Response given: 0.718

Challenge: What value of measured composite Z-score is listed for `COC(=O)[C@@]1(Cc2ccc(OC)cc2)[C@H]2c3cc(C(=O)N(C)C)n(Cc4ccsc4Br)c3C[C@H]2CN1C(=O)c1ccccc1` ?
Response given: -0.362

Challenge: What value of measured composite Z-score is listed for C=CCC(OC(C)=O)[C@@H]1[C@@H](N(Cc2ccc(-c3cccc(C(F)(F)F)c3)o2)C(=O)c2cccc3ccccc23)c2cc(OCCCO)ccc2N1C(=O)c1ccc2ccccc2c1 (some centres undefined) ?
Response given: 0.115

Challenge: What value of measured composite Z-score is listed for `O=C1O[C@H](c2ccccc2)[C@H](c2ccccc2)N2[C@H]1[C@@H](C(=O)N1CCN(c3ncccn3)CC1)[C@]1(C(=O)Nc3ccccc31)[C@H]2c1ccc(O)cc1` ?
Response given: 0.56

###

# protocol_description: inhibitors of hydroxyurea-induced Chk1 phosphorylation, primary screen, imaging, HeLa, phospho-Chk1 nuclear intensity (AID 1187); further: test concentration not given here
# condition_parameters: hydroxyurea-induced phospho-Chk1 immunofluorescence imaging, higher = more signal
// Not met strictly below -0.04 in z-score; Met otherwise

Challenge: Can `CCCC[C@@H]1C[C@H]1[C@@H](NC(=O)Cc1ccccc1)c1ccc(Cl)cc1` be said to have z-score at or above -0.04?
Response given: Not met

Challenge: Can `C#CCN(C/C=C/c1ccccc1)[C@H](CO[Si](C)(C)C(C)(C)C)c1ccccc1` be said to have z-score at or above -0.04?
Response given: Not met

Challenge: Can `C=C(CCCC)C(=O)CC[C@H](OC(=O)c1cccnc1)c1ccc(CO)o1` be said to have z-score at or above -0.04?
Response given: Met

Challenge: Can `CN(C)CCCC[C@@H]1NC(=O)[C@H]2C[C@@H](C(=O)NCc3ccc(F)cc3)[C@@H](c3ccc(O)cc3)N2C1=O` be said to have z-score at or above -0.04?
Response given: Met

Challenge: Can C[C@H]1C2[C@H](Cc3ccccc3)NC(=O)[C@]23C(=O)NCC(=O)N2CCC[C@H]2C(=O)NC/C=C\C/C=C/C3[C@@H]2O[C@]12C (some centres not stated) be said to have z-score at or above -0.04?
Response given: Met

Challenge: Can `CC(C)CNC(=O)[C@@H]1c2ccccc2C(=O)N(C2Cc3ccccc3C2)[C@H]1c1ccc(CO)cc1` be said to have z-score at or above -0.04?
Response given: Not met

Challenge: Can `CN(C)CCCC[C@@H]1NC(=O)[C@@H]2C[C@H](C(=O)NCCCCCCNC(=O)CS)[C@H](c3cccc(OCCO)c3)N2C1=O` be said to have z-score at or above -0.04?
Response given: Not met

Challenge: Can `[N-]=[N+]=NCc1ccccc1[C@@H]1OC(c2ccc(OCCCO)cc2)=N[C@]1(Cc1ccccc1)C(=O)NCc1ccccc1` be said to have z-score at or above -0.04?
Response given: Not met

Challenge: Can O=C1OCCC/C=C\[C@H]2OC34C=CCN(Cc5ccccc5)C(=O)[C@H]3N(CCCCCO)C(=O)[C@@H]4C12 (some centres not stated) be said to have z-score at or above -0.04?
Response given: Met

Challenge: Can `C#CCN([C@H](/C=C/C1CC1)[C@@H](O)Cc1ccccc1)[C@@H](Cc1ccccc1)C(=O)OC` be said to have z-score at or above -0.04?
Response given: Not met

Challenge: Can `CC(C)C(=C=CC[C@@H](O)c1ccccc1OCCO)C[C@@H](O)c1cc(Cl)cc(Cl)c1O` be said to have z-score at or above -0.04?
Response given: Met

###

# measured_on: Neurogenic locus notch homolog protein 3 (Homo sapiens)
# protocol_description: NOTCH3 binders on small-molecule microarray, primary screen, biochemical, 635/667 nm fluorescence (AID 1096)
# condition_parameters: NOTCH3 binding, 635 nm fluorescence, higher = more signal
// criterion not met strictly below 0.6 in composite z-score; criterion met otherwise

Challenge: Can `[N-]=[N+]=NCc1ccccc1[C@@H]1OC(c2ccc(OCCCO)cc2)=N[C@]1(Cc1ccccc1)C(=O)NCc1ccccc1` be said to have composite z-score at or above 0.6?
Response given: criterion met

Challenge: Can `COC(=O)[C@@]1(Cc2ccc(OC)cc2)[C@H]2c3cc(C(=O)N(C)C)n(Cc4ccsc4Br)c3C[C@H]2CN1C(=O)c1ccccc1` be said to have composite z-score at or above 0.6?
Response given: criterion not met

Challenge: Can `COc1ccc([Si](C)(C)[C@H]2[C@H](CC(=O)N3Cc4ccccc4C[C@H]3CO)O[C@@]3(C(=O)N(Cc4cccc(N5C(=O)c6cccc7cccc5c67)c4)c4ccccc43)[C@@H]2C)cc1` be said to have composite z-score at or above 0.6?
Response given: criterion met

Challenge: Can `C=CCOC(=O)[C@H]1[C@@H]2C(=O)O[C@@H](c3ccccc3)[C@@H](c3ccccc3)N2[C@@H](c2ccc(OCCOC(=O)[C@H]3C[C@H]4C(=O)NCC(=O)N4[C@H]3c3ccc(O)cc3)cc2)[C@]12C(=O)Nc1ccc(I)cc12` be said to have composite z-score at or above 0.6?
Response given: criterion met

Challenge: Can `CCOC(=O)C1=C(C(=O)OCC)N(S(=O)(=O)CC[Si](C)(C)C)[C@H](c2ccccc2)CC1` be said to have composite z-score at or above 0.6?
Response given: criterion met

Challenge: Can CCCCC(O)C1C=CC2C(=O)NC(=O)C2N1Nc1ccc(Cl)cc1Cl (configuration not stated) be said to have composite z-score at or above 0.6?
Response given: criterion not met

###

# protocol_description: modulators of HCV replicon luciferase signal, primary screen, HCV replication inhibitor project, Huh7 cells, luciferase reporter (AID 1109);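 further: huh7 hepatoma cells harbouring a luciferase neomycin HCV replicon reporter; luciferase luminescence as measure of HCV replicon replication; test concentration not given here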
# condition_parameters: 48 h, higher = more signal
property_name: z-score
# print the numeric value only

Challenge: What value of measured z-score is listed for `COc1ccc([Si](C)(C)[C@H]2[C@H](CCO)O[C@@]3(C(=O)N(Cc4ccc(N5CCOC5=O)cc4)c4ccccc43)[C@@H]2C)cc1` ?
Response given: -3.71

Challenge: What value of measured z-score is listed for `O=C1O[C@@H](c2ccccc2)[C@@H](c2ccccc2)N2[C@@H](c3ccc(O)cc3)[C@]3(C(=O)Nc4ccc(C#CC5=CCCCC5)cc43)[C@@H](C(=O)N3CCCCCCC3)[C@H]12` ?
Response given: -1.46

Challenge: What value of measured z-score is listed for `C=CCNC(=O)[C@@H]1[C@H]2C(=O)O[C@H](c3ccccc3)[C@H](c3ccccc3)N2[C@H](c2ccc(O)cc2)[C@@]12C(=O)Nc1ccc(C#CC3(O)CCCCCC3)cc12` ?
Response given: -0.608

###

# measured_on: Neurogenic locus notch homolog protein 3 (Homo sapiens)
# protocol_description: NOTCH3 binders on small-molecule microarray, primary screen, biochemical, 635/667 nm fluorescence (AID 1096)
# condition_parameters: NOTCH3 binding, 635 nm fluorescence, higher = more signal
// classify(record): look up composite z-score in ranges range A (below 0.02), range B (0.02 to below 0.6), range C (0.6 or more)

Challenge: Class (by measured composite z-score) for `[N-]=[N+]=NCc1ccccc1C[C@]1(C(=O)NCc2ccccc2)N=C(c2ccc(OCCCO)cc2)O[C@H]1c1ccccc1CN=[N+]=[N-]`
Response given: range B

Challenge: Class (by measured composite z-score) for COc1cc2c(cc1O)C(c1ccc(CN3CCCC3)cc1)N(Cc1cccc(OC(F)(F)F)c1)CC2 (stereo unspecified)
Response given: range B

Challenge: Class (by measured composite z-score) for O=C1C2C=CC(C(O)C(c3ccccc3)c3ccccc3)N(Nc3ccccc3)C2C(=O)N1c1ccccc1 (stereo unspecified)
Response given: range C

Challenge: Class (by measured composite z-score) for `C=CCN1C(=O)[C@]2(O[C@H](CCO)[C@@H]([Si](C)(C)c3ccc(OC)cc3)[C@@H]2C)c2ccccc21`
Response given: range A

Challenge: Class (by measured composite z-score) for `COCCOC(=O)N1C(=O)[C@@]2(c3cc(C#CCC(C(=O)OC)C(=O)OC)ccc31)[C@H](c1ccc(OCCO)cc1)N1[C@H](c3ccccc3)[C@H](c3ccccc3)OC(=O)[C@H]1[C@@H]2C(=O)N1CCCCCCC1`
Response given: range C

Challenge: Class (by measured composite z-score) for COc1ccc(C(O)C2C=CC3C(=O)N(C)C(=O)C3N2Nc2ccc([N+](=O)[O-])cc2[N+](=O)[O-])cc1OCc1ccccc1 (stereo unspecified)
Response given: range C

Challenge: Class (by measured composite z-score) for `CC1(C)OC[C@@]23C=C(Br)[C@@H](C[C@H]12)[C@@]1(CO1)C3=O`
Response given: range B

Challenge: Class (by measured composite z-score) for `O=C1c2ccccc2[C@](Cc2ccccc2I)(C(=O)O)[C@H](c2ccc(CO)cc2)N1Cc1ccccc1`
Response given: range A

Challenge: Class (by measured composite z-score) for CC(c1ccccc1)C(O)C1C=CC2C(=O)N(c3ccccc3)C(=O)C2N1Nc1ccc(C#N)cc1 (stereo unspecified)
Response given: range C

Challenge: Class (by measured composite z-score) for `CC(C)C[C@@H]1NC(=O)[C@H]2C[C@@H](C(=O)NCCCCCNC(=O)CS)[C@@H](c3ccc(O)cc3)N2C1=O`
Response given: range C

Challenge: Class (by measured composite z-score) for `C#CCN=C(N)N`
Response given: range B

Challenge: Class (by measured composite z-score) for `COC(=O)[C@@]1(Cc2ccc(OC)cc2)[C@H]2c3cc(C(=O)N4CCCC4)n(CCc4ccc(OC)c(Br)c4)c3C[C@H]2CN1C(=O)c1ccccc1`
Response given: range A

Challenge: Class (by measured composite z-score) for `COCCn1c(C(=O)N2CCCC2)cc2c1C[C@H]1CN(C(=O)c3ccccc3)[C@@](Cc3ccccc3)(C(=O)OC)[C@@H]21`
Response given: range C

Challenge: Class (by measured composite z-score) for CCCCN1CC=CC23O[C@@H]4/C=C\CCC(C)OC(=O)C4[C@H]2C(=O)N(C(C)CO)[C@@H]3C1=O (stereo partly specified)
Response given: range A

Challenge: Class (by measured composite z-score) for `C#CCN(C/C=C/c1ccccc1)[C@H](CO[Si](C)(C)C(C)(C)C)c1ccccc1`
Response given: range A
